The measured values listed here are drawn from the supplement of paper PMC7125110.

B1: glmS ribozyme (parent)
chain: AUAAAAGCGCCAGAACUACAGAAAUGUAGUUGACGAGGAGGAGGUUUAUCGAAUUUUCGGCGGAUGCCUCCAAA

- Variants of: B1
- Protocol text: self-cleavage kobs at 2500 uM GlcN6P; higher = faster cleavage; RNA array
- Condition summary: with glucosamine-6-phosphate
Fewer inactive variants are shown than the library holds.
Observed property: self-cleavage kobs at 2500 uM GlcN6P

• C34A G44A = < 1e-05 s⁻¹
• C10U A42C G43U C67A = < 1e-05 s⁻¹
• G7U G9U = < 1e-05 s⁻¹
• G7U C11U G13C A36U U56A = < 1e-05 s⁻¹

Quick batch: self-cleavage kobs at 2500 uM GlcN6P for everything below.
1. A42C G51A A64U C68G
2. U30G G35U G59U
3. G35C A36G U49A
4. U49C G59C
5. C8A A12C C68U

["< 1e-05 s⁻¹", "< 1e-05 s⁻¹", "< 1e-05 s⁻¹", "< 1e-05 s⁻¹", "< 1e-05 s⁻¹"]

Dear colleague, could you please provide self-cleavage kobs at 2500 uM GlcN6P for the variants listed below?
1. A33G A42G A52G G60C
2. G41A G44U G66A
3. A12G U27C G29U
4. U46G G51U
5. G9U C16A A42C U54A A64G C70U
6. G9A U55C C71A
7. C8G A14G A15U G41C U47G U56A

1. < 1e-05 s⁻¹
2. < 1e-05 s⁻¹
3. < 1e-05 s⁻¹
4. < 1e-05 s⁻¹
5. < 1e-05 s⁻¹
6. < 1e-05 s⁻¹
7. < 1e-05 s⁻¹

Provide self-cleavage kobs at 2500 uM GlcN6P values for the following items, in order.
1. G7U A14C C16A
2. C10G G43U U46C
3. A6U G32C C34G U55G U56A
4. A12C G13C A42U U49C

< 1e-05 s⁻¹
< 1e-05 s⁻¹
< 1e-05 s⁻¹
< 1e-05 s⁻¹
